Field: inhibition. Provide a value for each of the compounds that follow.
Molecular target: UniProt P0C1P9
Sequence (P0C1P9 whole entry): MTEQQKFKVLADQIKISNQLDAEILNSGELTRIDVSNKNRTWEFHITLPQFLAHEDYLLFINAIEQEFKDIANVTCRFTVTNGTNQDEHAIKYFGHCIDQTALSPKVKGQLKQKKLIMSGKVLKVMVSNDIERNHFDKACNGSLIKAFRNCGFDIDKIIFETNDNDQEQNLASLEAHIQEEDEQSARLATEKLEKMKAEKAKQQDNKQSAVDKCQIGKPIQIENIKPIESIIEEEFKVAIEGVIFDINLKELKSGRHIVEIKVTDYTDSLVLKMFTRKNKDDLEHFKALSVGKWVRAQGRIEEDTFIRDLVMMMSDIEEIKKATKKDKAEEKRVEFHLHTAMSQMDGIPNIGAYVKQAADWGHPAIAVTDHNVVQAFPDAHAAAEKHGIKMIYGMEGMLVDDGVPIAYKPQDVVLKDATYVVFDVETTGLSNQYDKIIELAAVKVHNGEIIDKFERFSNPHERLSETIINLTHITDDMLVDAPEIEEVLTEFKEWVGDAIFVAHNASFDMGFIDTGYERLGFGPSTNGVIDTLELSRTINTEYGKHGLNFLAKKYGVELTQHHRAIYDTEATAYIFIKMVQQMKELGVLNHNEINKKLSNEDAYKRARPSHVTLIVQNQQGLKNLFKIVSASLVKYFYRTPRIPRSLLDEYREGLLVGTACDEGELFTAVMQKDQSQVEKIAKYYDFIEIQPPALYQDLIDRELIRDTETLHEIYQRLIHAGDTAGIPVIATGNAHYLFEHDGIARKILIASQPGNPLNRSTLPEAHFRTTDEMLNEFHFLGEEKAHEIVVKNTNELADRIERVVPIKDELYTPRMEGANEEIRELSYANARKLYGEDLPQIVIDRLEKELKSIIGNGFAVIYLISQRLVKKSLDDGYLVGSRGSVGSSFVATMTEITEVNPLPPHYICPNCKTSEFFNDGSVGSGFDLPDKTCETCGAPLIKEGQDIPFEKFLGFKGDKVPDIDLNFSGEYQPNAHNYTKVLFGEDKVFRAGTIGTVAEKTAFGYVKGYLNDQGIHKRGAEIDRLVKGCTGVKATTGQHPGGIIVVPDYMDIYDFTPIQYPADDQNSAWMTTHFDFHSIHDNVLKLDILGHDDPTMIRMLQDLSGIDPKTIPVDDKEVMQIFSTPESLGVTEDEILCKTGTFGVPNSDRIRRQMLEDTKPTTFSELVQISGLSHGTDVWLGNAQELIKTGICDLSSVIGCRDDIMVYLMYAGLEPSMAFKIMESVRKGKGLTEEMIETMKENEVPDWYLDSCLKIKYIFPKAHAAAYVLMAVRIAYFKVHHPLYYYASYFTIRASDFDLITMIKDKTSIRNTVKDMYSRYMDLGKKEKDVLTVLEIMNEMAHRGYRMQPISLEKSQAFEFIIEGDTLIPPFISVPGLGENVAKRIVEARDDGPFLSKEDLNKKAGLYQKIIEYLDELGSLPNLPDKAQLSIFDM
Assay: Inhibition of DNA polymerase3C from Staphylococcus aureus at 100 uM

Example entries and their recorded answers appear below.
Molecule	Test system	inhibition
Nc1nc(Nc2ccc3c(c2)CCC3)nc(O)c1Cc1ccccc1	UniProt P0C1P9	17%
O=[N+]([O-])c1ccc(OCCCc2c(O)nc(Nc3ccc4c(c3)CCC4)nc2O)cc1	UniProt P0C1P9	70%
COc1ccc(OCCCc2c(O)nc(Nc3ccc4c(c3)CCC4)nc2O)cc1	UniProt P0C1P9	81%

For every listed record, write down its inhibition.
1. Oc1nc(Nc2ccc3c(c2)CCC3)nc(O)c1CCOc1ccccc1
2. O=C(O)c1ccc(OCCCc2c(O)nc(Nc3ccc4c(c3)CCC4)nc2O)cc1
3. C=CCCCc1c(O)nc(Nc2ccc3c(c2)CCC3)nc1O
4. Nc1ccc(OCCCc2c(O)nc(Nc3ccc4c(c3)CCC4)nc2O)cc1
5. C=CCc1c(O)nc(Nc2ccc3c(c2)CCC3)nc1Cl

1. 74%
2. 90%
3. 89%
4. 83%
5. 53%

# batch size: 6; output inhibition per entry
1. C=CCc1c(O)nc(Nc2ccc3c(c2)CCC3)nc1O
2. C=CCc1c(O)nc(Nc2ccc(C)c(CC)c2)nc1O
3. Nc1cc(O)nc(Nc2ccc3c(c2)CCC3)n1
4. CCCc1cnc(Nc2ccc3c(c2)CCC3)nc1O
5. Oc1nc(Nc2ccc3c(c2)CCC3)nc(O)c1CCc1ccccc1
6. NCCCc1c(O)nc(Nc2ccc3c(c2)CCC3)nc1O

["65%", "90%", "5%", "7%", "68%", "40%"]

For every item in the list below, what is its measured inhibition?
1. Oc1nc(Nc2ccc3c(c2)CCC3)nc(O)c1Cc1ccccc1
2. Nc1nc(Nc2ccc3c(c2)CCC3)nc(O)c1CCCc1ccccc1
3. COc1cc(OCCCc2c(O)nc(Nc3ccc4c(c3)CCC4)nc2O)ccc1[N+](=O)[O-]

1: 90%; 2: -0%; 3: 72%
